- Experimental system: Prothrombin (Homo sapiens)
- Measurement notes: In vitro inhibitory activity against thrombin
pKi: −log10 of the molar value.
Recorded endpoint: pKi

1 = C[C@H](NC(=O)CNC(=O)Nc1ccc(C(=N)N)cc1)c1ccccc1
2 = N=C(N)c1ccc(NC(=O)NCC(=O)NCc2ccc(Cl)c(Cl)c2)cc1
3 = COc1cccc([C@H](C)NC(=O)CNC(=O)Nc2ccc(C(=N)N)cc2)c1
Rank items: key pKi, increasing. Answer by listing the labels in the requested order.
1, 3, 2

====

Let's look at some compounds and their measured Ki.
- Experimental system: UniProt P00734

Compound	Ki
N=C(N)c1ccc(NC(=O)NCC(=O)NCc2cccc(Br)c2)cc1	> 50 µM
C[C@@H](NC(=O)CNC(=O)Nc1ccc(C(=N)N)cc1)c1ccccc1	> 50 µM

Please report the recorded Ki for CC(C)(NC(=O)CNC(=O)Nc1ccc(C(=N)N)cc1)c1ccccc1 .
> 50 µM
